Form: system (Histone deacetylase 2 (Homo sapiens, UniProt Q92769)), quantity (IC50), values below.

{"compound": "O=C(CCCCCCC(=O)NC1CCCC1)NO", "IC50 / nM": 4390}
{"compound": "O=C(CCCCC[C@H](NC(=O)C1CCNC1=O)C(=O)Nc1ccccc1)NO (stereo partly specified)", "IC50 / nM": 238}
{"compound": "O=C(CCCCC[C@H](NC(=O)[C@H]1CCC(=O)N1)C(=O)NCCc1ccccc1)NO", "IC50 / nM": 180}
{"compound": "O=C(CCCCC[C@H](NC(=O)[C@H]1CCC(=O)N1)C(=O)Nc1cccc(C(F)(F)F)c1)NO", "IC50 / nM": 8}
{"compound": "Cc1cccc(NC(=O)[C@H](CCCCCC(=O)NO)NC(=O)[C@H]2CCC(=O)N2)c1", "IC50 / nM": 27}
{"compound": "Cc1ccc(NC(=O)CCCCCCC(=O)NO)cc1", "IC50 / nM": 589}
